From: BigSolDB 2.1

Conditions: in n-propanol, 308.15 K

Structure String	solubility (mole fraction)
O=P1(O)Oc2ccc3ccccc3c2-c2c(ccc3ccccc23)O1	0.00731

* * *

Conditions: in isobutanol, 308.15 K

Structure String	solubility (mole fraction)
O=P1(O)Oc2ccc3ccccc3c2-c2c(ccc3ccccc23)O1	0.00491

* * *

Settings: in isopropanol, 333.15 K

Structure String	solubility (mole fraction)
O=P1(O)Oc2ccc3ccccc3c2-c2c(ccc3ccccc23)O1	0.00891

* * *

Conditions: in n-butanol, 293.15 K

Structure String	solubility (mole fraction)
O=P1(O)Oc2ccc3ccccc3c2-c2c(ccc3ccccc23)O1	0.00709

* * *

Details: in ethyl acetate, 313.15 K

Structure String	solubility (mole fraction)
O=P1(O)Oc2ccc3ccccc3c2-c2c(ccc3ccccc23)O1	0.000521
